TGT: T1, CXCL8_HUMAN (human, UniProt P10145 28-99)
T1 sequence: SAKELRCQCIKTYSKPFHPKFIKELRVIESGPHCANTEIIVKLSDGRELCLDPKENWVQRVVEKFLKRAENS
ASSAY_METHOD_TEXT: yeast surface display FACS re-test; note: test concentration or dose not given here
VALUE_KIND: % cells over threshold fluorescence (%)
Kindly provide the numeric value in % only, without the unit symbol.

In: Given the binder P1170_IXORI (other) LGDEDQLFSVEYCGTNCTQQDDGKWTPCSGKNGKCKCYHEDGKRYGLCLYTEYTDFSQYPNPEGSEIENTRPRP , what is its reported % cells over threshold fluorescence?
Out: 81

In: # repeat for P1127_IXORI (other) AGKDDEHFSVDYCGMNCTQQEDGSWTACSGRNGECRCYHESGKRSGLCLSTTYIDFSEYGNLSDSDIAAASPRLSMKESH
Out: 43

In: # repeat for P1168_IXORI (other) GQDTDGKEKSDEYELFTVEYCGTNCTQLENGSWTACTGKNGTCRCFHENDKKVGLCLSTEYTDFSEYPDPNSEEIKAASPLP
Out: 24
